Answer each item with its documented IC50.
molecular target: human CCR7 (Homo sapiens); construct: expressed in transfected cells; experiment: CCL19-induced calcium mobilization assay, U87.CD4 cells expressing CCR7; assay type: cell-based; conditions: CCL19-induced calcium signaling; read-out: IC50 [μM] block CCL19 induced calcium signaling
Sequence (P32248 25-378): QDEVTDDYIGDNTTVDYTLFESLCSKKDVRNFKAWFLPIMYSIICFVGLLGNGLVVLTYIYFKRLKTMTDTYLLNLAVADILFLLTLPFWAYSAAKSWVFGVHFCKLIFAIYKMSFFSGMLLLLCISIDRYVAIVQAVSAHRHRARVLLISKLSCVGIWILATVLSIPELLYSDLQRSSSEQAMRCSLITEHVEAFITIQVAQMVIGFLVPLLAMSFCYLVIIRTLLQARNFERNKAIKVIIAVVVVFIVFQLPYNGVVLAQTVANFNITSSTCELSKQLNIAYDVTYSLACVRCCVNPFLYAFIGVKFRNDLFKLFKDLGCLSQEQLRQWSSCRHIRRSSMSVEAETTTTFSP

The following molecules have reported results that may help.
CN(C)C(=O)c1ccc(Cl)c(NCC(=O)N(C)Cc2ccco2)c1	> 10 µM
CN(C)CCNc1c(Nc2cc(C(F)(F)F)cc(C(F)(F)F)c2)c(=O)c1=O	> 50 µM
O=c1c(Nc2cc(C(F)(F)F)cc(C(F)(F)F)c2)c(Nc2cc(C(F)(F)F)cc(C(F)(F)F)c2)c1=O	> 50 µM

Please look at the items below and tell me IC50 for each one, in order.
1. COc1ccc([N+](=O)[O-])c(C(=O)N[C@@H](c2ncccc2C)C(C)C)c1
2. C[C@H](c1ccccc1)[C@@H](C)NC(=O)N[C@H]1CCN(C)C1=O
3. COC[C@@H](NC1=NS(=O)(=O)c2ccccc21)c1ccc(C)o1

["> 50 µM", "> 50 µM", "> 50 µM"]
